- Read-out: TIMP metallopeptidase inhibitor 1 (TIMP1), TIMP1 (gene 7076)
- ASSAY METHOD TEXT: BSK_hDFCGF_TIMP1: BioMAP Diversity Plus: hDFCGF Assay for TIMP metallopeptidase inhibitor 1 (TIMP1) Biomarker Activity (AID 2283062)
- EXPERIMENTAL CONDITIONS: primary human foreskin fibroblasts; actives raise or lower the signal
The source made the active and inactive calls. The calls were made as follows: active = hit-call score of the fitted dose curve at least 0.9, where 1 is the maximum; inactive = score below 0.9.
# output must be one of active, inactive

COMPOUND: COC(C)(C)CCC[C@H](C)C/C=C/C(C)=C/C(=O)OC(C)C
CLASS: active
--
COMPOUND: CCCOC(=O)c1ccccc1C(=O)OCCC
CLASS: inactive
--
COMPOUND: c1ccc(Nc2ccc3ccccc3c2)cc1
CLASS: active

What outcome does the record of this test show for O=P1(NCCCl)OCCCN1CCCl (stereo not given) ?
inactive

Recorded test outcome, item O=[N+]([O-])C=Cc1ccccc1
active

Identify the outcome logged in this assay for the compound shown: O=c1c2ccccc2c(=O)c2c1cc(Cl)c1[nH]c3c([nH]c12)c(Cl)cc1c(=O)c2ccccc2c(=O)c13
inactive

Can you look up the reported call for O=[N+]([O-])O for me?
inactive

Tell me the assay call for O=c1[nH]c(Cl)c(Cl)cc1Cl please.
inactive

Which outcome did this test record for the compound Clc1ccc(-c2ccccc2)cc1 ?
inactive

// outcome(item) with item = CCC(C)c1cc([N+](=O)[O-])cc([N+](=O)[O-])c1OC(=O)C=C(C)C (stereo not given)
active

// outcome(item) with item = Cc1ccc(OP(=O)(Oc2ccc(C)cc2)Oc2ccc(C)cc2)cc1 (tested in a mixture with another compound)
inactive

Would you mind telling me which call this test gave O=S(=O)(c1ccccc1)c1ccccc1 ?
inactive

I'd appreciate the recorded outcome for CC(C)(C)C(O)C(Oc1ccc(-c2ccccc2)cc1)n1cncn1 (stereo not given) from this test.
inactive

Called result for Oc1cc(Cl)ccc1Cl
inactive

Could you kindly confirm the outcome this assay logged for O=C(CCl)c1ccccc1 ?
active

Give the logged outcome of this assay for the following compound: COc1ccc(CO)cc1
inactive

In this assay, the call recorded for N#CCCCCC#N was what?
inactive

Each compound tested received a call. Report the one for Nc1ccc(-c2ccc(N)c(N)c2)cc1N .
inactive

// return assay outcome for O=C1C(Cl)=C(Cl)C(=O)C(Cl)=C1Cl
active

Which result was noted for this compound in the test: CC(C)(C)C(=O)CCl
inactive
